// provenance: the supplement of paper PMC9170038

Test system: K4 kissing-loop RNA reporter;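 also: bound reporter read as fluorescence of individual clusters on recovered sequencing chips by microscopy, with normalized cluster intensities fitted with a binding model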
Assay: apparent KD of K4 kissing-loop reporter; higher = weaker reporter binding
Conditions: Eterna round: R107; input ligand: tryptophan 2.4 mM
Endpoint: apparent KD of K4 kissing-loop reporter (nM)
Unit nM implied. Number only.

For this sequence ( GCCGUACGCAUGGAUACCAGCAUCGACUCAUAUACAGUGAUGUUGUGUAAUGACCUCAUUUGCCCUUGGCAGCCAUGCGUACGGC ), measured apparent KD of K4 kissing-loop reporter is 800

For this sequence ( AGUGAUGUGGGAAGGAGCGCUAUAAGACUUCAGUGAUGUUGAAGUGCUGGUUUAGUGUUGUAGCAGGUAGGUCGCCUAGAUGUUA [KL-XARG-B11] ), measured apparent KD of K4 kissing-loop reporter is 218

For this sequence ( GCAGGACGAUGAGGAGGAUGAAUUACUGAAGGAGCGCAUAUGGUUGCAGGUAGGUCGCGGUGAACAAGUAUAGUGAUGUUAUAUC [SSArgA.R] ), measured apparent KD of K4 kissing-loop reporter is 1050
